Recorded below: AC50, system Cytochrome P450 2C9 (Homo sapiens).

Recorded results for 3 compounds are shown here.
Cc1cc(NC(=O)c2c(F)cccc2F)n(-c2nc3ccccc3[nH]2)n1 = 4.47 µM (inconclusive)
CCOC(=O)Nc1ccc(C)cc1NC(=O)OCC = 25.1 µM (inconclusive)
Cc1nc2c3cnn(-c4ccc(C)c(C)c4)c3ncn2n1 = 20 µM (inconclusive)

Exercise: Would you kindly share the measured AC50 for CCN(CC)c1cc(C)c2cc(NC(=O)CNC(C)=O)ccc2n1 ?
Solution: 0.891 µM (inconclusive)

Exercise: Reported AC50 for O=C(Nc1nccs1)c1sc2cc(Cl)ccc2c1Cl : what is it?
Solution: 0.891 µM (inconclusive)

====

Target: Streptokinase A (Streptococcus pyogenes serotype M1, UniProt P10520)
Sequence (P10520 whole entry): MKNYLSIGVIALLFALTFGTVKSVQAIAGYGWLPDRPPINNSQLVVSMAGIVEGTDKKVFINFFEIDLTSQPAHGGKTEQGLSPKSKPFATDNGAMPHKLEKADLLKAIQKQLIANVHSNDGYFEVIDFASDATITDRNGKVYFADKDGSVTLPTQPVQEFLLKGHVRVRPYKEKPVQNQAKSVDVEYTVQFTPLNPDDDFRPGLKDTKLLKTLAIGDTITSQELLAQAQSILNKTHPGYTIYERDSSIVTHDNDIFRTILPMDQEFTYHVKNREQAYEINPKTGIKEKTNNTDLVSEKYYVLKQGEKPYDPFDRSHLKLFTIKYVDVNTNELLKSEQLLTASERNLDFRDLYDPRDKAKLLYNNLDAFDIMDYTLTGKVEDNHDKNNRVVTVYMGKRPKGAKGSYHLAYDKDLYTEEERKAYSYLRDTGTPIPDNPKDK
Experiment: S. pyogenes streptokinase expression inhibitors, potency, dose response, plasminogen activation absorbance, OD405 (AID 1914);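 further: secreted streptokinase activity via plasminogen activation per viability signal from cell pellet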
Type: functional, Streptococcus pyogenes M1 GAS
Entries annotated with measured EC50

Worked cases, EC50 given:
O=C(O)CCSc1ccc([N+](=O)[O-])cc1[N+](=O)[O-] = > 150 µM (not active)
O=C1c2cccc3cccc(c23)C(=O)N1CC1CCN(CC(O)COc2ccc3ccccc3c2)CC1 (stereo unspecified) = 17.9 µM (inconclusive)

Exercise: Recorded EC50 of Cc1ccc(C(=O)n2c(N)nc3ccccc32)cc1 , please.
Solution: > 150 µM (not active)

Exercise: Dear colleague, I am looking for the recorded EC50 of the following compound: O=C(O)CCCN1C(=O)/C(=C/c2cn(-c3ccccc3)nc2-c2cccs2)SC1=S
Solution: > 150 µM (not active)

Exercise: Bench note: what EC50 did Cc1ccc2c(c1)/C(=C1\SC(N(C)c3ccc(O)cc3)=NC1=O)C(=O)N2 show?
Solution: > 150 µM (not active)

Exercise: Data request, read-out EC50, for C/C(=N\NS(=O)(=O)c1ccc(C)cc1)c1ccc(C)o1
Solution: > 150 µM (not active)

Exercise: Need EC50 of Cc1ccc(N/N=C(\C=O)C(=O)c2ccc(Cl)cc2)cc1 , thanks.
Solution: > 50 µM (not active)

====

Target: Orexin/Hypocretin receptor type 1 (Homo sapiens, UniProt O43613)
Sequence (O43613 whole entry): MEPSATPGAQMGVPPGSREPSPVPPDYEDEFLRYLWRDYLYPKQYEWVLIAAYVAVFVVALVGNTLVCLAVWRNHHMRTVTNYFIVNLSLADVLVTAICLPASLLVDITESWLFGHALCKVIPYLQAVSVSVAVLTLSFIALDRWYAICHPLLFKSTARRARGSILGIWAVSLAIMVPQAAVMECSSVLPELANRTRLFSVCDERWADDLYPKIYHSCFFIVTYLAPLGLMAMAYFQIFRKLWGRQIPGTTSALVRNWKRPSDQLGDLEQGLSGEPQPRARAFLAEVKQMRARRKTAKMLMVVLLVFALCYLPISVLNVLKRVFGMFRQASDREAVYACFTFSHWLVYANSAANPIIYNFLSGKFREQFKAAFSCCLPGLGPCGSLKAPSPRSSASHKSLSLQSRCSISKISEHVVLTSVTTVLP
Test: Fluorescence-based cell-based high throughput dose response assay for antagonists of the orexin 1 receptor (OX1R; HCRTR1). [Related pubchem assays (depositor defined):AID434989, AID435008, AID463079, AID485270, AID492963, AID492964, AID492965, AID493232, AID504717, AID504718]
Type: functional
Calls of active or inactive are those of the source.
One label from this list, please: active, inactive

CCOC(=O)c1c(C)nc2c3ccccc3ccn12 = inactive

Exercise: How was COc1ccccc1C(=O)Nc1nc2cc3c(cc2s1)OCCO3 classified in this test?
Solution: active

Exercise: // return assay outcome for COc1ccc(OCc2n(CC(=O)OC3CC(C)CCC3C(C)C)c3ccccc3[n+]2C)cc1.[Cl-] (stereo not given)
Solution: active

Exercise: What is the recorded call for this molecule in the test? Nc1nc(-c2sc3nc4c(cc3c2N)CCCC4)nc(N2CCOCC2)n1
Solution: active

Exercise: What is the recorded call for this molecule in the test? Cc1cc(C(=O)NCc2cccc(Cl)c2)c2ccccc2n1
Solution: inactive
